This collection of values is drawn from ChEMBL document CHEMBL5370547.

# experimental_target: Histone-lysine N-methyltransferase NSD3 (Homo sapiens, UniProt Q9BZ95)
# Sequence (Q9BZ95 whole entry): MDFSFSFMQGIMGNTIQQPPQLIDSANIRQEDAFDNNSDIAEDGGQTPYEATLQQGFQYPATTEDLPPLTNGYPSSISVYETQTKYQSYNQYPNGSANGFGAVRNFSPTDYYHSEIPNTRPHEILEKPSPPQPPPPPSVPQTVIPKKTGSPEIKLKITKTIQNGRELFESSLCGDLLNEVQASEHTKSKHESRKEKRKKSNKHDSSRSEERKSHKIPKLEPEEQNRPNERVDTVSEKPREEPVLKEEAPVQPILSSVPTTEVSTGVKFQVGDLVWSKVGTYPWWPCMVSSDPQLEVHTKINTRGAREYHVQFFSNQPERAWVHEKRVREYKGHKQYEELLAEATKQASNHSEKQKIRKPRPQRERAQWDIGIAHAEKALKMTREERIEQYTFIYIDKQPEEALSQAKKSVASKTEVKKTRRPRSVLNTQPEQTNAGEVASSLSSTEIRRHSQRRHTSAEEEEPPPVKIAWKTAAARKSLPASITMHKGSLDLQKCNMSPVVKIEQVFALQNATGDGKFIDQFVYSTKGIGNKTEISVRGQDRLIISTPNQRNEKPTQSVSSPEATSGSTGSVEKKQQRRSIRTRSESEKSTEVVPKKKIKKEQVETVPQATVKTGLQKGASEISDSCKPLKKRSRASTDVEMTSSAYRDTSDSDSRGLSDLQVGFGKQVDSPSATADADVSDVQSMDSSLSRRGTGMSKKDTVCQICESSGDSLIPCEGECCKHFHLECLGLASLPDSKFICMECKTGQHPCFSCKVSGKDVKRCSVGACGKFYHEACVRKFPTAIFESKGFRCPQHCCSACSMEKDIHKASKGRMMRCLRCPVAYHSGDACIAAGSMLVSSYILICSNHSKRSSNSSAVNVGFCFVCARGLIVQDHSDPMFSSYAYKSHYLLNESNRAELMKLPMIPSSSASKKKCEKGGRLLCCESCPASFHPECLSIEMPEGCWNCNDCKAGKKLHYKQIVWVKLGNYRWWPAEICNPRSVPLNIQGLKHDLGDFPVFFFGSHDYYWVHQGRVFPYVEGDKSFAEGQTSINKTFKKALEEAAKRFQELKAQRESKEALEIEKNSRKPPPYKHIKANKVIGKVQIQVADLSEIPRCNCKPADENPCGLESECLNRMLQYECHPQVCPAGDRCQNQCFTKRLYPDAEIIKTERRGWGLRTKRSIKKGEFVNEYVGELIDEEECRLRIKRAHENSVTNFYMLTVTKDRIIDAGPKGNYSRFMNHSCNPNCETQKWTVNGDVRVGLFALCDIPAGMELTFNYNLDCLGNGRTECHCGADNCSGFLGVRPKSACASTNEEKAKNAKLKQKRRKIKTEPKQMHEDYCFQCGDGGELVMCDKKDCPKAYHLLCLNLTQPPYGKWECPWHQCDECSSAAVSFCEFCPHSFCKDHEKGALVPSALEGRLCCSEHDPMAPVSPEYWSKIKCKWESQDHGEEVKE
# assay_info: Binding affinity to human NSD3 […] domain (247 to 402 residues) expressed in Escherichia coli assessed as dissociation constant
test_readout: Kd (µM)
All answers are understood in µM, so give the number only.

For Histone-lysine N-methyltransferase NSD3 (Homo sapiens, UniProt Q9BZ95), give the measured Kd of the entry Cc1cc(CNCCCC(=O)NCCCCCCCCC(=O)N[C@H](C(=O)N2C[C@@H](O)C[C@@H]2C(=O)N[C@H](C)c2ccc(-c3scnc3C)cc2)C(C)(C)C)cc(C)c1-c1ncn(C)c1-c1ccnc2cc(F)ccc12 1.3
